The following molecules have recorded Ki on UniProtKB O43614.
Sequence (O43614 whole entry): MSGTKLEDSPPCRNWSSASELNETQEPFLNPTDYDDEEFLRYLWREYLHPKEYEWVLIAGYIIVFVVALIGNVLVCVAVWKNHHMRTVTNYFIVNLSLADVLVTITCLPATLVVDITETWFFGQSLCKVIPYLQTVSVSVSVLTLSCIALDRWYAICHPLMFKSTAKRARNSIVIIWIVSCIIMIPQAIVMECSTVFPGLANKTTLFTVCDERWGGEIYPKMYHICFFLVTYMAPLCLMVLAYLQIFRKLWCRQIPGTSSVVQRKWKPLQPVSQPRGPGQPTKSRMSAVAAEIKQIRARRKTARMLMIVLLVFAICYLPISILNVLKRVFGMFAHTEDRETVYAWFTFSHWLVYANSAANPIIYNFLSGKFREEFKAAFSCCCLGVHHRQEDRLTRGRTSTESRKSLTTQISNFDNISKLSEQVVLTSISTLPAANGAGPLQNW

Cc1ccc(-n2nccn2)c(C(=O)N2C(C)C3CC(Nc4cnc(C(F)(F)F)cn4)C2C3)n1 (single isomer, unassigned) [Example 69A] ... > 10 µM

Record CC1C2CC(Oc3ccc(C(F)(F)F)cn3)C(C2)N1C(=O)c1ccc(F)cc1-c1ncccn1 (single isomer, unassigned) [Example 17A] ; system UniProtKB O43614; Ki = > 10 µM

Record Cc1cnc(-n2nccn2)c(C(=O)N2C(CF)C3CC(Oc4ccc(C(F)(F)F)cn4)C2C3)c1 (racemic) [Example 72] has UniProtKB O43614 Ki equal to > 10 µM

###

pKi: −log10 of the molar value.
# pKi per entry for rat orexin 1 receptor (Rattus norvegicus)
property: pKi

Worked cases, answers included:
Cc1ccc(-c2ncccn2)c(C(=O)N2C(C)C3CC(Oc4cnc(C(F)(F)F)cn4)C2C3)n1 (racemic) ... 7.15
Cc1ccc(-c2ncccn2)c(C(=O)N2[C@H](CF)[C@@H]3CC[C@H]2[C@H](Oc2ccc(C(F)(F)F)cn2)C3)n1 ... 7.32
CC1C2CC(Oc3ccc(C(F)(F)F)cn3)C(C2)N1C(=O)c1ncccc1-c1ncccn1 (racemic) ... 7.96
C[C@@H]1[C@H]2C[C@@H](Oc3ccc(C(F)(F)F)cn3)[C@H](C2)N1C(=O)c1ccc(OCCF)cc1-n1nccn1 ... 6.71

[A] C[C@@H]1[C@H]2C[C@@H](Oc3ccc(C(F)(F)F)cn3)[C@H](C2)N1C(=O)c1ccccc1-c1cccc(Br)n1
[B] Cc1cnc(C(=O)N2C(CC(C)C)C3CC(Oc4ccc(C(F)(F)F)cn4)C2C3)c(-n2nccn2)c1 (racemic)
Problem: // pick larger pKi from pair: A vs B Pick one and reply with its label.
Result: A
(A: 7.89, B: 6.75)

[1] Cc1ccc(-n2nccn2)c(C(=O)N2[C@H](C)[C@H]3C[C@@H](Oc4cnc5cc(F)c(F)cc5n4)[C@@H]2C3)n1 (relative stereo)
[2] CC1C2CC(Oc3ccc(C(F)(F)F)cn3)C(C2)N1C(=O)c1ccccc1-c1ncc(F)cn1 (single isomer, unassigned) [Example 19B]
Problem: For this pair, 1 and 2 , which shows a numerically higher pKi? Record your answer as the label of the chosen record.
Result: 2
(2: 8.30, 1: 7.39)

###

target: human orexin 1 receptor (Homo sapiens (Human))
Sequence (O43613 whole entry): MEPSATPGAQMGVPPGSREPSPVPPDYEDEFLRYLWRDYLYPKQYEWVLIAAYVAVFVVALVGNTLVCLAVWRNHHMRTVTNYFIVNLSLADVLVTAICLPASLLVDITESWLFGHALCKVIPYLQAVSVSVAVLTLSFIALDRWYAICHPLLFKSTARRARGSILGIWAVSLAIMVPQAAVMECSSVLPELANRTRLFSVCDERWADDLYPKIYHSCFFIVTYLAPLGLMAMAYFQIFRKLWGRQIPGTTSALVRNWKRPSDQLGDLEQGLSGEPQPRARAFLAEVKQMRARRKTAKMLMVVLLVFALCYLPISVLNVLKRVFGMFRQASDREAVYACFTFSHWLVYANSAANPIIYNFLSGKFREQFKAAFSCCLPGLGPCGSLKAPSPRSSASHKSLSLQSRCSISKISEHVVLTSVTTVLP
property: Ki (nM)

Cc1cccc(C(=O)N2[C@H](C)[C@H]3C[C@@H](Oc4ccc(C(F)(F)F)nc4)[C@@H]2C3)c1-n1nccn1 (relative stereo) ... 123
Cc1cnc(C(=O)N2[C@H](C)[C@H]3C[C@@H](Oc4ccc(C(F)(F)F)cn4)[C@@H]2C3)c(-c2ncccn2)c1 (relative stereo) ... 7
Cc1cnc(C(=O)N2[C@H](C)[C@@H]3CC[C@H]2[C@H](Oc2ccc(C(F)(F)F)cn2)C3)c(-c2ncccn2)c1 ... 8
C[C@@H]1[C@H]2C[C@@H](Oc3cnc4ccccc4n3)[C@H](C2)N1C(=O)c1cccc(F)c1-n1nccn1 (relative stereo) ... 2

[a] COc1ccc(C(=O)N2[C@H](C)[C@H]3C[C@@H](Oc4ccc(C(F)(F)F)cn4)[C@@H]2C3)c(-n2nccn2)c1 (relative stereo)
[b] CCC1C2CC(Oc3ccc(C(F)(F)F)cn3)C(C2)N1C(=O)c1ccccc1-n1nccn1 (racemic)
[c] Cc1cnc(C(=O)N2[C@H](C)[C@H]3C[C@@H](Oc4ccc(C(F)(F)F)cn4)[C@@H]2C3)c(-c2ncccc2F)c1 (relative stereo)
Problem: Hey, quick one: sort these by Ki, largest value first please. Order the labels as requested and give them as your answer.
Result: c, a, b
(c: 14 nM, a: 6 nM, b: 2 nM)
